This collection of values is drawn from patent US20260209365A1.

Please respond with reported p-STAT5 inhibition (%), IL-7 induced, HPB-ALL T cells, flow cytometry for every item in the list.
# measured target: T1, human γc on cells (KHYG-1, Ramos, HPB-ALL, Jurkat, PBMC) (human) (UniProt P31785)
# T1 sequence (looked up): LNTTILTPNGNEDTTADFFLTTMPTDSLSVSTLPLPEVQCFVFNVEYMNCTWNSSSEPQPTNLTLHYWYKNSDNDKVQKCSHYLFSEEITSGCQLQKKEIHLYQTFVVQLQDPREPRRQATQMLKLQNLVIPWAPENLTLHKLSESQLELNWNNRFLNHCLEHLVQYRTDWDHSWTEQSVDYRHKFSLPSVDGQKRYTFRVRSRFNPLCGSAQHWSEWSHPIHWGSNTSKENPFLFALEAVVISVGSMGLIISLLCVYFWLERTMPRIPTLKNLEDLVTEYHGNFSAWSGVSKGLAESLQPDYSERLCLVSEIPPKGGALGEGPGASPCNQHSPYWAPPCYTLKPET
# assay remarks: cell-based or functional assay
Numbers only; they are read as %.

Please fill in: p-STAT5 inhibition (%), IL-7 induced, HPB-ALL T cells, flow cytometry reported for SM-05G anti-γc ScFv (scFv, part only; not given: linker and E-tag, not shown: small tags and cut ends) scFv (part 1 of 2), part: EVQLQQSGPELVKPGASVKIFCKTSGYTFTEYTMHWVKQSHGESLEWIGGIDPNTGGVTYNQKFKGKATLTADSSSSTAYMELRNLTSEDSAVYYCARRRRYYGYALDYWGQGTSVTVSS scFv (part 2 of 2), part: DVVMTQTPLSLPVNLGDQASISCRSSQSLVHSNGNTYLDWYLQKPGQSPKLLIYKVSNRFSGVPDRFSGSGSGTYFTLNFSRVEAEDLGVYYCFQGSHVPFTFGSGTKLEIKR = 0

Please fill in: p-STAT5 inhibition (%), IL-7 induced, HPB-ALL T cells, flow cytometry reported for SM-05K anti-γc ScFv (scFv, part only; not given: linker and E-tag, not shown: small tags and cut ends) scFv (part 1 of 2), part: EVQLLESGPELVKPGASVKISCKTSGYSFTDYFMNWVKQSHGESLEWIGGIDPNTGGVTYNQKFKGKATLTVDKSASTAYMELRSLTSEDSAVYYCARRRRYYGYAMDYWGQGTSVTVSS scFv (part 2 of 2), part: DVLMTQTPLSLPVSLGDQASISCRSSQSIVHSNGNTYLEWYLQKPGQSPKLLIYKVSNRFSGVPDRFSGSGSGTDFTLKISRVEAEDLGVYFCSQSTHVPWTFGGGTKLEIKR = 86

Please fill in: p-STAT5 inhibition (%), IL-7 induced, HPB-ALL T cells, flow cytometry reported for SM-05C anti-γc ScFv (scFv, part only; not given: linker and E-tag, not shown: small tags and cut ends) scFv (part 1 of 2), part: QVQLQQSGPELVKPGASVKIFCKTSGYTFTEYTMHWVKQSHGESLEWIGGIDPNTGGATYNQKFKGKATLTADKSSSTAYMELRSLTSEDSAVYYCARRRRYYGYAMDYWGQGTSVTVSS scFv (part 2 of 2), part: DVVMTQTPLSLPVSLGDQASISCRSSQSLVHSNGNTYLHWYLQKPGQSPKLLIYKVSNRFSGVPDRFSGSGSGTDFTLKISRVEAEDLGIYYCFQDSHVPFTFGSGTKLEIKR = 100
